# testedSystem: rat nAChR α9α10 (Rattus norvegicus, UniProt P43144+Q9JLB5)
# Sequence (P43144 26-479 limits assumed): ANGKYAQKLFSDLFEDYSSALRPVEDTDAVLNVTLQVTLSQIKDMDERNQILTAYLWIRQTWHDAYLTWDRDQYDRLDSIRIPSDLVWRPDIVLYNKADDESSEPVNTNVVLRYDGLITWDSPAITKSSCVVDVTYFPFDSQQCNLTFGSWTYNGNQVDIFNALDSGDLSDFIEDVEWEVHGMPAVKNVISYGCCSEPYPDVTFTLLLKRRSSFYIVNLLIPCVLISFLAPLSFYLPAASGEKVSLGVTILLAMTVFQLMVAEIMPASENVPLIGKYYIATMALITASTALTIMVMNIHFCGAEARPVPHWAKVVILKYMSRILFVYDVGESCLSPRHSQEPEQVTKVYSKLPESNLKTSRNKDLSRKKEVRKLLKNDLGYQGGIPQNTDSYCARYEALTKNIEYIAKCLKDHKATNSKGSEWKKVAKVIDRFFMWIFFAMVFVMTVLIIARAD
# Sequence (Q9JLB5 25-447 limits assumed): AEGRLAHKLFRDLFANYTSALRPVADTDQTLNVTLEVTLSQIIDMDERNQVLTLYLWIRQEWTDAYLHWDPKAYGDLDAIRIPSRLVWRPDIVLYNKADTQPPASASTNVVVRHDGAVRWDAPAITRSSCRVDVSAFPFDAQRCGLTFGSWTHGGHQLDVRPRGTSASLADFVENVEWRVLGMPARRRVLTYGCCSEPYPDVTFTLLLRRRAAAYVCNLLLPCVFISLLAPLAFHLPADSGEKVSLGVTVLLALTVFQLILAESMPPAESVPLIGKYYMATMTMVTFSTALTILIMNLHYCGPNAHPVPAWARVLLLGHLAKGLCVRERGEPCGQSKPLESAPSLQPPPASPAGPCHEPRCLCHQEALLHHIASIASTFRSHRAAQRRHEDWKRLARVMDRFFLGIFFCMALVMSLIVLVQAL
# method: cell-based
Positions of bridges follow the written chain, without caps; N, C: chain ends. Residues, ends and D or L forms follow the SMILES beside them.
measurementType: IC50

For the record CC(C)C[C@@H]1NC(=O)[C@H](CCC(=O)O)NC(=O)[C@@H]2CCCN2C(=O)[C@H](Cc2c[nH]cn2)NC(=O)[C@H](CC(N)=O)NC(=O)CNC(=O)[C@H](Cc2c[nH]cn2)NC(=O)[C@@H]2CSSC[C@H](NC(=O)CN)C(=O)N[C@@H](CSSC[C@@H](C(N)=O)NC1=O)C(=O)N[C@@H]([C@@H](C)O)C(=O)N[C@@H](Cc1c[nH]cn1)C(=O)N1CCC[C@H]1C(=O)N[C@@H](C)C(=O)N2 [Mr1.7[E2G,V11G,S12N,Δ1]] (H-GCCTHPACHGNHPELC-NH2; disulfide 2-8, 3-16; N-terminus assumed) , what value of IC50 is listed for rat nAChR α9α10 (Rattus norvegicus, UniProt P43144+Q9JLB5)?
> 10 µM

###

# testedSystem: rat nAChR α3β2 (Rattus norvegicus, UniProt P04757+P12390)
# Construct: expressed in transfected cells; host or cells: Xenopus oocytes injected with cRNA
# Sequence (P04757 26-499 limits assumed): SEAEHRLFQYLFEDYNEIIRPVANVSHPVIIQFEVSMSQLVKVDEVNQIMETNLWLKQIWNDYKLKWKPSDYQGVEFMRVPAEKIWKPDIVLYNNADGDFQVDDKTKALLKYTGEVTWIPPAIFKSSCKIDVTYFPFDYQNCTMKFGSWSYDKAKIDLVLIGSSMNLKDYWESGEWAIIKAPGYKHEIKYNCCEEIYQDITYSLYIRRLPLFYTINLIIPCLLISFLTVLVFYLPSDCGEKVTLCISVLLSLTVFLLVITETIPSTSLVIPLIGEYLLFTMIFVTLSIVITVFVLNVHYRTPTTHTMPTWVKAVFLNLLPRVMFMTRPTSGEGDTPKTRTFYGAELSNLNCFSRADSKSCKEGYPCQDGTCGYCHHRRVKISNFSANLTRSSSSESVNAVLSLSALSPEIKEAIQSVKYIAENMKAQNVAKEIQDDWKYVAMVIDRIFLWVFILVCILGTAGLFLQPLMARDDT
# Sequence (P12390 25-500 limits assumed): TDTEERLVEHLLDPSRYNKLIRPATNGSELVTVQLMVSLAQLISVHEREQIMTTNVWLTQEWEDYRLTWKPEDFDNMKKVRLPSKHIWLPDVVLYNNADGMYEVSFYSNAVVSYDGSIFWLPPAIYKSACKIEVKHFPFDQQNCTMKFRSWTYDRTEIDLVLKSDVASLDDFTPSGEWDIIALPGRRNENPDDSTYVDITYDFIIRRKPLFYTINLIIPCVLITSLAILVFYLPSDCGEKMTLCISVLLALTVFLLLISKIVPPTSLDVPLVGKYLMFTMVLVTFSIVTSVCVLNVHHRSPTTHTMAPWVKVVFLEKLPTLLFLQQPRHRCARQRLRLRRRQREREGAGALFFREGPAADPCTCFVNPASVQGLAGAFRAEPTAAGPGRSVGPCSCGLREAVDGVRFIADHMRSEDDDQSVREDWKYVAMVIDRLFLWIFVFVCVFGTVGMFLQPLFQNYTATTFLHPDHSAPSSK
# method: cell-based
# Assay type: cell-based
Positions of bridges follow the written chain, without caps; N, C: chain ends. Residues, ends and D or L forms follow the SMILES beside them.
measurementType: pIC50
pIC50 (log units): -log10 of the concentration in mol/L.

Sample CC(C)C[C@@H]1NC(=O)[C@H](CCC(=O)O)NC(=O)[C@@H]2CCCN2C(=O)[C@H](Cc2c[nH]cn2)NC(=O)[C@H](CO)NC(=O)[C@H](C(C)C)NC(=O)[C@H](Cc2c[nH]cn2)NC(=O)[C@@H]2CSSC[C@H](NC(=O)[C@H](CCC(=O)O)NC(=O)[C@H](C)N)C(=O)N[C@@H](CSSC[C@@H](C(N)=O)NC1=O)C(=O)N[C@@H]([C@@H](C)O)C(=O)N[C@@H](Cc1c[nH]cn1)C(=O)N1CCC[C@H]1C(=O)N[C@@H](C)C(=O)N2 [Mr1.7[P1A]] (H-AECCTHPACHVSHPELC-NH2; disulfide 3-9, 4-17) — what was its pIC50?
7.38

###

# testedSystem: rat nAChR α3β2 (Rattus norvegicus, UniProt P04757+P12390)
# Construct: expressed in transfected cells; host or cells: Xenopus oocytes injected with cRNA
# method: cell-based
# Type: cell-based
# conditionDescription: SEM
Positions of bridges follow the written chain, without caps; N, C: chain ends. Residues, ends and D or L forms follow the SMILES beside them.
measurementType: koff (s⁻¹)
Write down the numeric answer in s⁻¹ and omit the unit.

Sample CC(C)C[C@@H]1NC(=O)[C@H](CCC(=O)O)NC(=O)[C@@H]2CCCN2C(=O)[C@H](Cc2c[nH]cn2)NC(=O)[C@H](CC(N)=O)NC(=O)CNC(=O)[C@H](Cc2c[nH]cn2)NC(=O)[C@@H]2CSSC[C@H](NC(=O)CN)C(=O)N[C@@H](CSSC[C@@H](C(N)=O)NC1=O)C(=O)N[C@@H]([C@@H](C)O)C(=O)N[C@@H](Cc1c[nH]cn1)C(=O)N1CCC[C@H]1C(=O)N[C@@H](C)C(=O)N2 [Mr1.7[E2G,V11G,S12N,Δ1]] (H-GCCTHPACHGNHPELC-NH2; disulfide 2-8, 3-16; N-terminus assumed) — what was its koff?
0.00352

Sample CC(C)C[C@@H]1NC(=O)[C@H](CCC(=O)O)NC(=O)[C@@H]2CCCN2C(=O)[C@H](Cc2c[nH]cn2)NC(=O)[C@H](CC(N)=O)NC(=O)[C@H](C(C)C)NC(=O)[C@H](Cc2c[nH]cn2)NC(=O)[C@@H]2CSSC[C@H](NC(=O)[C@H](C)NC(=O)[C@@H]3CCCN3)C(=O)N[C@@H](CSSC[C@@H](C(N)=O)NC1=O)C(=O)N[C@@H]([C@@H](C)O)C(=O)N[C@@H](Cc1c[nH]cn1)C(=O)N1CCC[C@H]1C(=O)N[C@@H](C)C(=O)N2 [Mr1.7[E2A,S12N]] (H-PACCTHPACHVNHPELC-NH2; disulfide 3-9, 4-17) — what was its koff?
0.00173

Sample CC(C)C[C@@H]1NC(=O)[C@H](CCC(=O)O)NC(=O)[C@@H]2CCCN2C(=O)[C@H](Cc2c[nH]cn2)NC(=O)[C@H](CC(N)=O)NC(=O)[C@H](C(C)C)NC(=O)[C@H](Cc2c[nH]cn2)NC(=O)[C@@H]2CSSC[C@H](NC(=O)[C@H](CCC(=O)O)NC(=O)[C@@H]3CCCN3)C(=O)N[C@@H](CSSC[C@@H](C(N)=O)NC1=O)C(=O)N[C@@H]([C@@H](C)O)C(=O)N[C@@H](Cc1c[nH]cn1)C(=O)N1CCC[C@H]1C(=O)N[C@@H](C)C(=O)N2 [Mr1.7[S12N]] (H-PECCTHPACHVNHPELC-NH2; disulfide 3-9, 4-17) — what was its koff?
0.00407

Sample CC(C)C[C@@H]1NC(=O)[C@H](CCC(=O)O)NC(=O)[C@@H]2CCCN2C(=O)[C@H](Cc2c[nH]cn2)NC(=O)[C@H](CO)NC(=O)[C@H](C(C)C)NC(=O)[C@H](Cc2c[nH]cn2)NC(=O)[C@@H]2CSSC[C@H](NC(=O)[C@H](C)NC(=O)[C@@H]3CCCN3)C(=O)N[C@@H](CSSC[C@@H](C(N)=O)NC1=O)C(=O)N[C@@H]([C@@H](C)O)C(=O)N[C@@H](Cc1c[nH]cn1)C(=O)N1CCC[C@H]1C(=O)N[C@@H](C)C(=O)N2 [Mr1.7[E2A]] (H-PACCTHPACHVSHPELC-NH2; disulfide 3-9, 4-17) — what was its koff?
0.0028
